These data points were gathered from the supplement of paper PMC12764529.

# experiment summary: folding stability dG unfold from trypsin proteolysis; higher = more stable
The reader will find reported folding stability dG unfold values listed item by item below.
Give the value in kcal/mol but do not write kcal/mol after it.

- biopolymer sequence: "SAGGSAGGSAGPEILIVVESEEEAKKLAEELARALREAGLPEDAKIKIKIIVLPKEELEKSAGGSAGGSAGG [r17_180_TrROS_Hall]"
  quantitative readout: 1.76
- biopolymer sequence: "SAPQIVEVKEYDPVSKTYTILAETPEGPLTVPVPAGGDTTVEEAIEQVKEYFEKTLPPGVELEIEKILLSAG [r14_422_JUSTAS]"
  quantitative readout: 0.355
- biopolymer sequence: "SAGGSMTEEERRALAEEIAKEVAEKISEEEGIPVKEILSIEVHPDGSVTITIKFPGTEGERTITIPRSAGGS [r16_622_JUSTAS]"
  quantitative readout: 1.96
- biopolymer sequence: "SAGGVLLEFPDGTTVEITVTTSTSTFKDPTTDKTVTKSSTTITVTRKTPDPVVTPVPASEAQRIFDSTSAGG [r13_809_JUSTAS]"
  quantitative readout: 2.13
- biopolymer sequence: "SAGGSAGGSKKKKIEIIIVMSKEEAEKIAEELKKKYNIKEIKIKVIPLKKNSPKVKELLKKLKSAGGSAGGS [r12_649_TrROS_Hall]"
  quantitative readout: 1.03
- biopolymer sequence: "SAGGSNNDNQPEPKVPYMEITINIPVNYNPNQSEEDRKRQVQEFIEELKDMYIPFPNGYPIRIDVMSAGGSA [r2_149_TrROS]"
  quantitative readout: 0.149

In the following, a different sequence is considered.
Reported folding stability dG unfold of SAGGSAGGSAKITIELDGITEVEFDEETGELYLRIEVDGKLYEIRITEDGTIEIREVPLEDSAGGSAGGSAG [r3_62_TrROS_Hall] : 1.86

###

# experiment summary: folding stability dG unfold from trypsin proteolysis; higher = more stable
Would you mind labelling by folding stability dG unfold? At or over 1 kcal/mol is Met, under is Not met.

Example entries and their recorded answers appear below.
- biopolymer sequence: "SAGGSAGGSAGKVIIIKVPKKDMTPEEVEKLAKELKEKFPDAKITVIEVKKDGYIIIKIDSAGGSAGGSAGG [r11_365_TrROS_Hall]"
  assigned class: "Met"
- biopolymer sequence: "SAGGSAAKIDPKNGTITIYNKKTGKKIKIKIKNLPPGAKVTIEIKNGKITIKVDGKTIEINIKEIKSAGGSA [r15_864_TrROS_Hall]"
  assigned class: "Met"
- biopolymer sequence: "SAGGSVVTIVEVVPEDKKIVIKAPGNPITIPLENIKEIKLIPEKGYLEITINNTTIKVPLNNPNSISAGGSA [r2_48_JUSTAS]"
  assigned class: "Not met"
- biopolymer sequence: "SAGGSAKELIIKIKIKVKVNGKTYEIEIEIKAESIEEAIEAIKKKLEEEGLEIEIVEIEIIPKEELSAGGSA [r15_165_TrROS_Hall]"
  assigned class: "Met"
- biopolymer sequence: "SAGGGSVSVTPVKEIPGPGTTTLYRETHPDDRTVLITYNPATGTVTVTTYKGNTKTSTTTYNTPESLSAGGS [r16_457_JUSTAS]"
  assigned class: "Met"
- biopolymer sequence: "SLEEFLASEEAKKRLEALKPPPPVETIRIKVKAKSVEEALKAIRELFPGVEVVKIKEVRPDGYLEVEVRRSA [r9_723_TrROS_Hall]"
  assigned class: "Met"
- biopolymer sequence: "SAGGSAGGSAGGMGPPPIETIVIEKPLSEEEYEALKKAYPDKKVTVSEIPGTPNKIATIESAGGSAGGSAGG [r17_254_JUSTAS]"
  assigned class: "Not met"
- biopolymer sequence: "SAGGSASNLKVTYKITIGSTTITVTLPEGSEKELKKIPNAEVTPISEIEPAPPPILYFKFENNNLVSAGGSA [r15_443_JUSTAS]"
  assigned class: "Not met"

Request: Reported folding stability dG unfold at or above 1 kcal/mol? SAGGSPMRIRDVEIEEFDPDAGRIEIRFPSNGNTIKIPIPPGHKSLKIKIRMKNGEPFEQTITIPPSAGGSA [r2_132_TrROS]
Response: Not met

Request: Quick check, folding stability dG unfold >= 1 kcal/mol? SAGGSAGGGMPISISITVTLSDGTVLEFTVTVPENAPDPASVAAALAAEIKAAHPDVAVTFTPASAGGSAGG [r6_132_JUSTAS]
Response: Not met

Request: Confirm if folding stability dG unfold reported for the sequence SAGGSAGGSMIVVKTENGEEIEISKDALKPGMTAEELKAKLPPGVKKIEIVEVKEVEVEVEEESAGGSAGGS [r20_161_TrROS_Hall] is 1 kcal/mol or above.
Response: Not met

Request: Given the entry SAGGSAGGSAGMVETVSTTTSVETGPDSTRYTTTTTTVLVTDSSGTPIATTTTTTTTVTASAGGSAGGSAGG [r17_139_JUSTAS] , answer whether its folding stability dG unfold meets or surpasses 1 kcal/mol.
Response: Met

Request: Check the entry SAGMKKTITIKIEVPEKPIRIIVEKNGKKEEITIKPGETVTIEIELEPGETLRIRIVNEDGEEFEFEIKSAG [r5_187_TrROS_Hall] : does folding stability dG unfold equal or exceed 1 kcal/mol?
Response: Met

Request: Could you please find out whether SAGGSAGGSAFKLPPGKKITIFFDPENGNFAIMVPDGNERRVPMPAEELIKLGFPVEIIGPWSAGGSAGGSA [r18_125_TrROS] has folding stability dG unfold that meets 1 kcal/mol or exceeds it?
Response: Not met

###

# experiment summary: folding stability dG unfold from chymotrypsin proteolysis; higher = more stable
Reported folding stability dG unfold values follow for various sequences

Sample records with folding stability dG unfold:
- biopolymer sequence: "SAEIPPDLIAVILGIEPYRFGERDFLVITAAIFRPEEPDAEVTLYTIVIEGDKIVSITPSRYRVPPEALSAG [r14_651_TrMRF]"
  result: "3.86 kcal/mol"
- biopolymer sequence: "SAGGSAGGSAGGGDFEKVKVRFRYVNPDGGPERDIEIEVEARKEDIPRLLKELKDAGLIESAGGSAGGSAGG [r7_618_TrMRF]"
  result: "1.25 kcal/mol"
- biopolymer sequence: "SAGGSAGGSAGGSDDPDGKPKPQIPPIKVEPIPIKDPNGWSIEIYYFPWNGMLIISFYNSAGGSAGGSAGGS [r4_305_TrROS]"
  result: "4.34 kcal/mol"
- biopolymer sequence: "SAGGSAGGTATLVLPAAAFPSRPDGSLGLEEIRDVARPIAQEAFGTDDITLDVESHPDGFVTITFSSAGGSA [r15_562_TrMRF]"
  result: "0.197 kcal/mol"

What the record says about SAGGSAGGMKVRVKIEVEGKTLEIEIEVPEEKREEALEKAKKLAEKLAEELDVEVKIVEVEEEPSAGGSAGG [r6_459_TrROS_Hall] : folding stability dG unfold is 2.41 kcal/mol

Reported folding stability dG unfold of SAGGSAGGSASYIPVTYSFFFPDKPYVERVEAEYELGPDGTPRILSAKVEVFPVDFSPDELSAGGSAGGSAG [r3_138_TrMRF] : 0.279 kcal/mol

// field: folding stability dG unfold; key: SAGGSAMYEVTEEKDPNSDYTTVTITFPNGATVTITYNPKTNTITADVDPAVDPEVAAAAAKAVLSSAGGSA [r15_511_JUSTAS] ; value = 2.39 kcal/mol

###

Reported folding stability dG unfold values for the following sequences.
# experiment summary: folding stability dG unfold from trypsin proteolysis; higher = more stable
Kindly answer with a numeric value in kcal/mol, unit omitted.

response.value for SAGKVEIKEVSVDPNTDEVKVTFKNPNVPPGTKIVVYPKDGKPIEFETEPNKEVTLTLPKDVEKIEFEGSAG [r14_671_TrMRF] (field: folding stability dG unfold) = -0.298

###

# experiment summary: folding stability dG unfold (combined trypsin and chymotrypsin); higher = more stable
folding stability dG unfold listing for selected sequences.
Give the value, in units of kcal/mol, as a plain number.

A selection of reference data follows.
- biopolymer sequence: "SAGGSAGGSAGGAPAAVESVEPLKIGDKEYLRITFPDGTTVTLPSSTPLSPDGQKLKPVPSAGGSAGGSAGG [r7_931_JUSTAS]"
  quantitative readout: 0.628
- biopolymer sequence: "SAMIEVINATDPVTGKPYTITREGEGITVTDPETGKTYAATKDGDTITLDAGDTPLTLTPVSTVPESLLSAG [r14_208_JUSTAS]"
  quantitative readout: 1.01
- biopolymer sequence: "SAGQTIRIDEIYPHPDGFLIKIRYPDGKVHTFPIKPNMPITVDGDTITITFPGGPITIPLENMEIEILPSAG [r5_999_TrROS]"
  quantitative readout: 3.24
- biopolymer sequence: "SAGGSAGGMEIRIEKDENGFLRLKVINKKTKKETEIEIPVEDEDALKKLLDAGVERVEIEPLPPSAGGSAGG [r6_639_TrROS_Hall]"
  quantitative readout: 1.14
- biopolymer sequence: "SAGGSSMKTSETTDPANGTPVRVETSIDPATNKVTTTVTTPDGTTVGSGTITIPPESSVTTTTTTTTPASAG [r5_747_JUSTAS]"
  quantitative readout: 1.21

Next:
// sample SAGGSAMTVTTLPDGSTVIHLPSGTTITITTAPDGTKPITITPPDGVPTTFPASVSLEDAIKAALSSAGGSA [r15_371_JUSTAS] , its folding stability dG unfold was 3.1
